- Test system: NCI-H1838
- assay.info: cells
- Type: functional, cell-based, Homo sapiens
- condition.set: Homo sapiens, NCI-H1838
- Description: SANGER: Inhibition of human NCI-H1838 cell growth in a cell viability assay.
Entries and their IC50 values follow.
readout.label: IC50

molecule: CO[C@H]1C[C@@H]2CC[C@@H](C)[C@@](O)(O2)C(=O)C(=O)N2CCCC[C@H]2C(=O)O[C@H]([C@H](C)C[C@@H]2CC[C@@H](O)[C@H](OC)C2)CC(=O)[C@H](C)/C=C(\C)[C@@H](O)[C@@H](OC)C(=O)[C@H](C)C[C@H](C)/C=C/C=C/C=C/1C
target.or.system: NCI-H1838
readout.label: IC50
recorded.value: > 0.1 µM
//
molecule: Cn1cc(C2=C(c3ccc(Cl)cc3Cl)C(=O)NC2=O)c2ccccc21
target.or.system: NCI-H1838
readout.label: IC50
recorded.value: > 10 µM
//
molecule: COc1cc(F)c(F)c(Nc2ccc(I)cc2F)c1NS(=O)(=O)C1(CC(O)CO)CC1 (stereo not drawn)
target.or.system: NCI-H1838;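 note: growth inhibition of NCI-H1838 cells, determined with a cell viability readout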
readout.label: IC50
recorded.value: > 5 µM

----------
- Test system: HSC-4;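 note: growth inhibition of human HSC-4 cells, read out with a cell viability assay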
- assay.info: cells
- Type: functional, cell-based, Homo sapiens
- condition.set: hsc-4
- Description: SANGER: Inhibition of human HSC-4 cell growth in a cell viability assay.
pIC50: −log10 of the molar value.
readout.label: pIC50

molecule: Cc1cc([C@@H](C)Nc2ccccc2C(=O)O)c2nc(N3CCOCC3)cc(=O)n2c1 [AZD-6482]
readout.label: pIC50
recorded.value: < 5.29

----------
- Test system: Detroit 562
- assay.info: cells
- Type: functional, cell-based, Homo sapiens
- condition.set: Homo sapiens, Detroit 562
- Description: SANGER: Inhibition of human Detroit562 cell growth in a cell viability assay.
pIC50: −log10 of the molar value.
Entries and their pIC50 values follow.
readout.label: pIC50

compound: O=C(NOCC1CC1)c1ccc(F)c(F)c1Nc1ccc(I)cc1Cl
target.or.system: Detroit 562
bound.operator: <
recorded.value: 5.00
//
compound: CC(=O)O[C@@H]1[C@@H](OC(C)=O)[C@@H](O)[C@H](Oc2c(-c3ccc(O)cc3)oc3cc(O)cc(O)c3c2=O)O[C@H]1C
target.or.system: Detroit 562
bound.operator: <
recorded.value: 5.00
//
compound: Cn1cncc1[C@@](N)(c1ccc(Cl)cc1)c1ccc2c(c1)c(-c1cccc(Cl)c1)cc(=O)n2C
target.or.system: Detroit 562
bound.operator: =
recorded.value: 5.39
//
compound: CCC1=C[C@@H]2CN(C1)Cc1c([nH]c3ccccc13)[C@@](C(=O)OC)(c1cc3c(cc1OC)N(C)[C@H]1[C@@](O)(C(=O)OC)[C@H](OC(C)=O)[C@]4(CC)C=CCN5CC[C@]31[C@@H]54)C2
target.or.system: Detroit 562
bound.operator: =
recorded.value: 8.12
//
compound: CCOc1nc(NC(=O)Cc2cc(OC)ccc2OC)cc(N)c1C#N
target.or.system: Detroit 562
bound.operator: <
recorded.value: 5.00
//
compound: CC(=O)O[C@@]12CO[C@@H]1C[C@H](O)[C@@]1(C)C(=O)[C@H](O)C3=C(C)[C@@H](OC(=O)[C@H](O)[C@@H](NC(=O)OC(C)(C)C)c4ccccc4)C[C@@](O)([C@@H](OC(=O)c4ccccc4)[C@H]21)C3(C)C
target.or.system: Detroit 562
bound.operator: =
recorded.value: 9.05
//
compound: CN(Cc1cnc2nc(N)nc(N)c2n1)c1ccc(C(=O)N[C@@H](CCC(=O)O)C(=O)O)cc1 [METHOTREXATE]
target.or.system: Detroit 562
bound.operator: <
recorded.value: 6.70
//
compound: C=CCNC1=C2C[C@@H](C)C[C@H](OC)[C@H](O)[C@@H](C)/C=C(\C)[C@H](OC(N)=O)[C@@H](OC)/C=C\C=C(/C)C(=O)NC(=CC1=O)C2=O
target.or.system: Detroit 562
bound.operator: =
recorded.value: 7.37
//
compound: COc1cc([C@@H]2c3cc4c(cc3[C@@H](O[C@@H]3O[C@@H]5CO[C@@H](C)O[C@H]5[C@H](O)[C@H]3O)[C@H]3COC(=O)[C@H]23)OCO4)cc(OC)c1O [ETOPOSIDE]
target.or.system: Detroit 562
bound.operator: =
recorded.value: 4.96
//
compound: Cn1cc(C2=C(c3ccc(Cl)cc3Cl)C(=O)NC2=O)c2ccccc21
target.or.system: Detroit 562;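 note: growth inhibition of human Detroit 562 cells, read out by a cell viability assay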
bound.operator: <
recorded.value: 5.00
